molecular target: DEN MTase (Dengue virus type 2); assay: GTP-Bodipy displacement; format: binding
pKi: −log10 of the molar value.
In this section, each of the molecules is paired with its reported pKi.
property_name: pKi

{"columns": ["molecule", "property_name", "recorded_measurement"],
 "data": [
  ["Nc1nc2c(ncn2[C@@H]2O[C@H](COP(=O)(O)OP(=O)(O)OP(=O)(O)O)[C@@H](O)[C@H]2O)c(=O)[nH]1 [GTP, guanosine triphosphate]", "pKi", 7.40],
  ["Nc1nc2c(ncn2[C@@H]2O[C@H](CO)[C@@H](O)[C@H]2O)c(=O)[nH]1", "pKi", 3.59],
  ["Nc1ncnc2c1ncn2[C@@H]1O[C@H](COP(=O)(O)OP(=O)(O)OP(=O)(O)O)[C@@H](O)[C@H]1O [ATP, Adenosine triphosphate]", "pKi", 3.46]
]}

* * *

In this section, each of the compounds is paired with its reported Fold Affinity Reduction.
target: DEN MTase (Dengue virus type 2, UniProt P29990); test: GTP-Bodipy displacement; assay type: binding; conditions: Ki relative to GTP
Sequence (P29990 2493-2755 limits assumed): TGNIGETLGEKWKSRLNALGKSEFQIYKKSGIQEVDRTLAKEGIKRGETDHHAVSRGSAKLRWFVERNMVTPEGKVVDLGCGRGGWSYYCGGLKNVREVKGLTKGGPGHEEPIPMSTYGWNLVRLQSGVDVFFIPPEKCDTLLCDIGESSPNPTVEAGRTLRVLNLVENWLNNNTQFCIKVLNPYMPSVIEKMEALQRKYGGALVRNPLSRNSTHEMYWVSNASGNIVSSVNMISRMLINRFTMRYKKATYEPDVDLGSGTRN

{"columns": ["compound", "Fold Affinity Reduction"],
 "data": [
  ["Nc1ncnc2c1ncn2[C@@H]1O[C@H](COP(=O)(O)OP(=O)(O)OP(=O)(O)O)[C@@H](O)[C@H]1O [ATP, Adenosine triphosphate]", 8750],
  ["Nc1nc2c(ncn2[C@@H]2O[C@H](COP(=O)(O)OP(=O)(O)O)[C@@H](O)[C@H]2O)c(=O)[nH]1", 3],
  ["Nc1nc2c(ncn2[C@H]2C[C@H](O)[C@@H](COP(=O)(O)OP(=O)(O)OP(=O)(O)O)O2)c(=O)[nH]1", 15],
  ["Nc1nc2c(ncn2[C@H]2CC[C@@H](COP(=O)(O)OP(=O)(O)OP(=O)(O)O)O2)c(=O)[nH]1", 19],
  ["Nc1nc2c(ncn2[C@@H]2O[C@H](CO)[C@@H](O)[C@H]2O)c(=O)[nH]1", 6400],
  ["Nc1nc2c(ncn2[C@@H]2O[C@H](COP(=O)(O)OP(=O)(O)OP(=O)(O)O)[C@@H](O)[C@H]2O)c(=O)[nH]1 [GTP, guanosine triphosphate]", 0],
  ["O=c1[nH]cnc2c1ncn2[C@@H]1O[C@H](COP(=O)(O)OP(=O)(O)OP(=O)(O)O)[C@@H](O)[C@H]1O [ITP, Inosine triphosphate]", 3],
  ["O=c1[nH]c(=O)c2ncn([C@@H]3O[C@H](COP(=O)(O)OP(=O)(O)OP(=O)(O)O)[C@@H](O)[C@H]3O)c2[nH]1 [XTP, xanthine triphosphate]", 12]
]}
